B1: Osa-1-4 twister ribozyme (parent)
chain: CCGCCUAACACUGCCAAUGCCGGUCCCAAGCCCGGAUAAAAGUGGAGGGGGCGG

Variants of: B1
Test: self-cleavage, relative activity (ratio to wild type); higher = more cleavage; co-transcriptional
measure name: self-cleavage
Lab note: jot down the number only; don't add units.

A36G C33G
0.09

Suppose we examine the variant G50A U24G ; what self-cleavage value has been reported?
0.02

Suppose we examine the variant A16G U24C ; what self-cleavage value has been reported?
0.58

Suppose we examine the variant A28C U43G ; what self-cleavage value has been reported?
0.32

Suppose we examine the variant G44A U43A ; what self-cleavage value has been reported?
0.88

Suppose we examine the variant C15A G44A ; what self-cleavage value has been reported?
0.11

These entries and their values trace back to the RNAGym collection of RNA variant scans (doi:10.1002/anie.201605470).
